- Test system: Plasmodium falciparum
- Assay method text: Antiplasmodial activity against Plasmodium falciparum W2
- Assay type: functional, organism-based
pIC50: −log10 of the molar value.
Measured parameter: pIC50

[I] CC(=O)O[C@@]1(C)CCC[C@@]2(C)[C@H]1CC[C@H]1[C@@H](C)c3ccoc3C[C@@H]12
[II] C=C1C(CCOC(=O)/C=C/c2ccc(O)c(O)c2)=CC(=O)[C@H]2[C@H]1CC[C@H]1C(C)(C)CCC[C@]21C
// compare measured pIC50, left I , right II , return larger Your choice should be expressed through its label. II
(II: 4.78, I: 4.52)

[I] CC[C@H](/C=C/[C@@H](C)[C@H]1CC[C@H]2[C@@H]3CC=C4C[C@@H](O[C@@H]5OC[C@@H](O)[C@H](O)[C@H]5O[C@@H]5O[C@H](CO)[C@@H](O)[C@H](O)[C@H]5O)CC[C@]4(C)[C@H]3CC[C@]12C)C(C)C
[II] COC(=O)[C@]12CCC(C)(C)C[C@H]1C1=CC[C@@H]3[C@@]4(C)CC[C@H](OC(C)=O)C(C)(C)[C@@H]4CC[C@@]3(C)[C@]1(C)CC2
// compare measured pIC50, left I , right II , return larger Your choice should be expressed through its label. I

[P] C[C@H]1C(CCO)=CC(=O)[C@H]2[C@H]1CC[C@H]1C(C)(C)CCC[C@]21C
[Q] CC1(C)CC[C@]2(C(=O)O)CC[C@]3(C)C(=CC[C@@H]4[C@@]5(C)CC[C@H](O)C(C)(C)[C@@H]5CC[C@]43C)[C@@H]2C1
// pick min by pIC50: P , Q Your choice should be expressed through its label. Q

====

- Test system: Plasmodium falciparum
- Assay method text: Antiplasmodial activity against Plasmodium falciparum D6
- Format: functional, organism-based
Measured parameter: IC50 (µM)

C=C1C(CCO)=CC(=O)[C@H]2[C@H]1CC[C@H]1C(C)(C)CCC[C@]21C | 17.3
CC(=O)O[C@@]1(C)CCC[C@@]2(C)[C@H]1CC[C@H]1[C@@H](C)c3ccoc3C[C@@H]12 | 25.7
COC(=O)[C@]12CCC(C)(C)C[C@H]1C1=CC[C@@H]3[C@@]4(C)CC[C@H](OC(C)=O)C(C)(C)[C@@H]4CC[C@@]3(C)[C@]1(C)CC2 | 18.7
